Recorded values, source patent US20130158043A1.

The reader will find pIC50 measurements below, all made with PAK-4 (Homo sapiens).
Sequence (O96013 whole entry): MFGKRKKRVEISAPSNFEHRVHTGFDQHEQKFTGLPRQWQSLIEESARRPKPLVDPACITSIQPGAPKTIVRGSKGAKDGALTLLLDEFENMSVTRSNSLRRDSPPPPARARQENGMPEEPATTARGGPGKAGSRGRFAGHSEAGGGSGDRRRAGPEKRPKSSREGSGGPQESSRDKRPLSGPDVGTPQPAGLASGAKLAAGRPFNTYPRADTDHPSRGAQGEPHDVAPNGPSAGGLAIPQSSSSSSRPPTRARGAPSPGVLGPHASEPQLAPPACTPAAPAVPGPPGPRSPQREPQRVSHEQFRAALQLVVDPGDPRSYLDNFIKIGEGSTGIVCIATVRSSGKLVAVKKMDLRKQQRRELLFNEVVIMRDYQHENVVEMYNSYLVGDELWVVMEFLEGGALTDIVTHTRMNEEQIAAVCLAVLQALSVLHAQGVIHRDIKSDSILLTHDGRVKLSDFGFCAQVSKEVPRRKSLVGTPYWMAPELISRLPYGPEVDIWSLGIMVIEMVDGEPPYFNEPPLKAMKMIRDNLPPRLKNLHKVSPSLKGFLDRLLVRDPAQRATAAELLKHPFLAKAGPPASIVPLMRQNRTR
pIC50: −log10 of the molar value.

Check out these entries, answers already filled in.
- SMILES_DATA: "Cc1nc(-c2ccc(-c3cc4cnc(Nc5ccc(C6CCN(C)CC6)cc5)nc4n(C)c3=O)c(Cl)c2)no1"
  REPORTED_PROPERTY: "pIC50"
  REPORTED_VALUE: "≤ 5.30"
- SMILES_DATA: "CCN1CCC(c2ccc(Nc3ncc4cc(-c5ccc(-c6noc(C)n6)cc5Cl)c(=O)n(CC)c4n3)cc2)CC1"
  REPORTED_PROPERTY: "pIC50"
  REPORTED_VALUE: "5.30 to 6.30"
- SMILES_DATA: "CN1CCN(c2ccc(Nc3ncc4ccc(=O)n(Cc5ncsc5C5CC5)c4n3)cc2)CC1"
  REPORTED_PROPERTY: "pIC50"
  REPORTED_VALUE: "5.30 to 6.30"
- SMILES_DATA: "CCn1c(=O)c(-c2ccc(-c3nccnc3C)cc2Cl)cc2cnc(Nc3ccc(C4CCN(C)CC4)cc3)nc21"
  REPORTED_PROPERTY: "pIC50"
  REPORTED_VALUE: "5.30 to 6.30"
- SMILES_DATA: "CCS(=O)(=O)c1ccccc1Cn1c(=O)c(-c2ccccc2Cl)cc2cnc(Nc3ccc(N4CCN(C)CC4)cc3)nc21"
  REPORTED_PROPERTY: "pIC50"
  REPORTED_VALUE: "5.30 to 6.30"

Now turn to the next compound.
Request: Lab request: please report pIC50 under test system PAK-4 (Homo sapiens) for `CCn1c(=O)c(-c2ccc(-c3cccnc3C)cc2F)cc2cnc(Nc3ccc(C4CCN(C)CC4)cc3)nc21`
Result: ≤ 5.30

* * *

# pIC50 per entry
Biological target: PAK1 (Homo sapiens)
Sequence (Q13153 whole entry): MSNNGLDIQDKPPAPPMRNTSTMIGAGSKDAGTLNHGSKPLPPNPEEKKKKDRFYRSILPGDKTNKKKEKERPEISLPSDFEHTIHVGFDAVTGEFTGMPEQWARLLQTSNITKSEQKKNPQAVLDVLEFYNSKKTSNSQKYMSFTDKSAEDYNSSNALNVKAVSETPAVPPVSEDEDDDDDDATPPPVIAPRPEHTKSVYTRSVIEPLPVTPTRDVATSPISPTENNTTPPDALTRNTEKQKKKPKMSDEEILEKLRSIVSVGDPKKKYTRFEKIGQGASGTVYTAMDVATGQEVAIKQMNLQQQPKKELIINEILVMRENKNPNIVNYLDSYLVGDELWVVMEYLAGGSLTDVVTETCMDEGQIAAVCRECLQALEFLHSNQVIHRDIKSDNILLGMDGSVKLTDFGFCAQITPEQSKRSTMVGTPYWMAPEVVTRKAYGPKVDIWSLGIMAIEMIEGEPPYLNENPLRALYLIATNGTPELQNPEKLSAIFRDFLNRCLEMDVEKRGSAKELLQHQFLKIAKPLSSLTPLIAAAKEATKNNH
pIC50: −log10 of the molar value.

Check out these entries, answers already filled in.
- MOLECULE: "CN1CCN(c2ccc(Nc3ncc4ccc(=O)n(Cc5occc5C5CC5)c4n3)cc2)CC1"
  pIC50: "5.30 to 6.30"
- MOLECULE: "CC#Cc1cc2cnc(Nc3ccc(N4CCN(C)CC4)cc3)nc2n(Cc2c(F)cccc2C2CC2)c1=O"
  pIC50: "6.30 to 7.30"
- MOLECULE: "CCn1c(=O)c(-c2ccc(-c3cccnc3F)cc2Cl)cc2cnc(Nc3ccc(C4CCN(C)CC4)cc3)nc21"
  pIC50: "> 7.30"
- MOLECULE: "CCn1c(=O)c(-c2ccc(-c3noc(C)n3)cc2Cl)cc2cnc(Nc3ccc(C4CCN(C)CC4)cc3)nc21"
  pIC50: "> 7.30"
- MOLECULE: "CCn1c(=O)c(-c2ccc(-c3cccnc3F)cc2Cl)cc2cnc(Nc3ccc(C4CCN5CCCC5C4)cc3)nc21 (stereo not shown)"
  pIC50: "> 7.30"

Request: Lab request: please report pIC50 under test system PAK1 (Homo sapiens) for `CCN1CCC(c2ccc(Nc3ncc4cc(-c5ccc(-c6cccnc6C)cc5Cl)c(=O)n(CC)c4n3)cc2)CC1`
Result: > 7.30

Request: Also need `CN1CCC(c2ccc(Nc3ncc4ccc(=O)n(Cc5c(F)cccc5C5CC5)c4n3)cc2)CC1` , thanks.
Result: > 7.30

Request: Also need `CCn1c(=O)c(-c2ccc(-c3cnc(C)cn3)cc2Cl)cc2cnc(Nc3ccc(C4CCN(C)CC4)cc3)nc21` , thanks.
Result: > 7.30

Request: Also need `CCN1CCC(c2ccc(Nc3ncc4cc(-c5ccc(-c6ccc(C)nc6)cc5Cl)c(=O)n(CC)c4n3)cc2)CC1` , thanks.
Result: > 7.30

Request: Also need `CCn1c(=O)c(-c2ccc(-c3cccnc3C)cc2)cc2cnc(Nc3ccc(C4CCN(C)CC4)cc3)nc21` , thanks.
Result: 5.30 to 6.30
